tested.on: Protein AF-9 (Homo sapiens) (UniProt P42568)
Sequence (P42568 whole entry, looked up): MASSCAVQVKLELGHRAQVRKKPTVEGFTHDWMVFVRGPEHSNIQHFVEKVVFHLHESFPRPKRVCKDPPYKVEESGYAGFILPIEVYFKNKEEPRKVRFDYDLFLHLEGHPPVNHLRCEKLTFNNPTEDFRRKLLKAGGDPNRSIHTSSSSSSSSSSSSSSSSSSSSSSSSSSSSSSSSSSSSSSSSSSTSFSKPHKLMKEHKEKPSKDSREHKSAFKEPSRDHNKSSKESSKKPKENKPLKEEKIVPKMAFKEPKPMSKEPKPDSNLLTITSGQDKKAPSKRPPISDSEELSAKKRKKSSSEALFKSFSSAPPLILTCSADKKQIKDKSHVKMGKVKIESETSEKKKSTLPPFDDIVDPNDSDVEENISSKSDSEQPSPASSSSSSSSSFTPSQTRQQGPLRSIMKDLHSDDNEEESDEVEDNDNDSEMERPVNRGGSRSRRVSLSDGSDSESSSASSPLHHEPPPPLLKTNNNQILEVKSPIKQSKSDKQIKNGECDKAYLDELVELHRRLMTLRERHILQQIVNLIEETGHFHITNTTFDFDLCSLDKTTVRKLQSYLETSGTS
experiment.summary: MLL-AF4/AF9 protein interaction blockers – biochemical, AlphaScreen, biotin-AF4 peptide, FLAG-AF9, single point, primary screen (AID 651704);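 further: 0% = plate neutral control median and 100% = total signal loss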
study.conditions: biotin-AF4 peptide binding to FLAG-AF9, at 10 µM, active compounds read high
About 1,600 (0.46%) of roughly 350,000 compounds were called active. Shown is part of a subset that was picked to be rich in actives.
reported.property: inhibition (%)
Kindly answer with a numeric value in %, unit omitted.

Exam item: Param readout= inhibition; system= Protein AF-9 (Homo sapiens) (UniProt P42568); entry= COc1cccc(-c2ccc([C@@H]3[C@H]4CN(C(=O)c5cccnc5)CC(=O)N4[C@H]3CO)cc2)c1 ; returns value.
Marked response: 0.197

Exam item: Param readout= inhibition; system= Protein AF-9 (Homo sapiens) (UniProt P42568); entry= COc1cccc(C#Cc2ccc([C@@H]3[C@H](C#N)N[C@H]3CO)cc2)c1 ; returns value.
Marked response: -2.01

Exam item: Param readout= inhibition; system= Protein AF-9 (Homo sapiens) (UniProt P42568); entry= COc1cccc2sc3cc(NCC[C@@H]4CCCN4C)ccc3c(=O)c12 ; returns value.
Marked response: 3.58

Origin of measurements: PubChem BioAssay AID651704
